Hey, just so you know, these numbers are from the supplement of paper PMC10307832.

relative viability values for the compounds below.
Tested on: NCI-H2170
method-notes: relative viability (nuclei count vs DMSO), 5 days (fraction); higher = more cells survive
stated-conditions: first compound 0.0002 µM
Please reply with the value in numeric form only.

compound	test-result
CC(=O)O[C@@]12CO[C@@H]1C[C@H](O)[C@@]1(C)C(=O)[C@H](O)C3=C(C)[C@@H](OC(=O)[C@H](O)[C@@H](NC(=O)OC(C)(C)C)c4ccccc4)C[C@@](O)([C@@H](OC(=O)c4ccccc4)[C@H]21)C3(C)C [Docetaxel] + N=C(N)NC(=N)NCCc1ccccc1 [Phenformin] (partner 250 µM)	0.405

Asked: Bench note: what relative viability did CC(=O)O[C@@]12CO[C@@H]1C[C@H](O)[C@@]1(C)C(=O)[C@H](O)C3=C(C)[C@@H](OC(=O)[C@H](O)[C@@H](NC(=O)OC(C)(C)C)c4ccccc4)C[C@@](O)([C@@H](OC(=O)c4ccccc4)[C@H]21)C3(C)C [Docetaxel] + O=C(CCCCCCC(=O)Nc1ccccc1)NO [Vorinostat] (partner 1 µM) show?
Given back: 0.787

Asked: Bench note: what relative viability did CC(=O)O[C@@]12CO[C@@H]1C[C@H](O)[C@@]1(C)C(=O)[C@H](O)C3=C(C)[C@@H](OC(=O)[C@H](O)[C@@H](NC(=O)OC(C)(C)C)c4ccccc4)C[C@@](O)([C@@H](OC(=O)c4ccccc4)[C@H]21)C3(C)C [Docetaxel] + CS(=O)(=O)N1CCN(Cc2cc3nc(-c4cccc5[nH]ncc45)nc(N4CCOCC4)c3s2)CC1 [Pictilisib] (partner 1 µM) show?
Given back: 0.342

----------
relative viability values for the compounds below.
Test system: NCI-H727
method-notes: relative viability (nuclei count vs DMSO), 5 days (fraction); higher = more cells survive
stated-conditions: first compound 0.253 µM
Please reply with the value in numeric form only.

Worked examples follow.
compound	relative viability
Cc1cnc(-c2cnc(NCCNc3ccc(C#N)cn3)nc2-c2ccc(Cl)cc2Cl)[nH]1 + CS(=O)(=O)CCNCc1ccc(-c2ccc3ncnc(Nc4ccc(OCc5cccc(F)c5)c(Cl)c4)c3c2)o1 [Lapatinib] (partner 2 µM)	0.882
O=c1[nH]c2ccccc2n1C1CCN(CCCC(c2ccc(F)cc2)c2ccc(F)cc2)CC1 [Pimozide] + CC(=O)c1c(C)c2cnc(Nc3ccc(N4CCNCC4)cn3)nc2n(C2CCCC2)c1=O [Palbociclib] (partner 0.5 µM)	0.661
Cc1cnc(-c2cnc(NCCNc3ccc(C#N)cn3)nc2-c2ccc(Cl)cc2Cl)[nH]1 + CC(=O)c1c(C)c2cnc(Nc3ccc(N4CCNCC4)cn3)nc2n(C2CCCC2)c1=O [Palbociclib] (partner 0.5 µM)	0.637
O=c1[nH]c2ccccc2n1C1CCN(CCCC(c2ccc(F)cc2)c2ccc(F)cc2)CC1 [Pimozide] + C[C@]1(O)C[C@@H](c2nc(-c3ccc4ccc(-c5ccccc5)nc4c3)c3c(N)nccn32)C1 [Linsitinib] (partner 1 µM)	0.337
O=c1[nH]c2ccccc2n1C1CCN(CCCC(c2ccc(F)cc2)c2ccc(F)cc2)CC1 [Pimozide] + CC1(C)CCC(c2ccc(Cl)cc2)=C(CN2CCN(c3ccc(C(=O)NS(=O)(=O)c4ccc(N[C@H](CCN5CCOCC5)CSc5ccccc5)c(S(=O)(=O)C(F)(F)F)c4)cc3)CC2)C1 [Navitoclax] (partner 0.5 µM)	0.421
O=c1[nH]c2ccccc2n1C1CCN(CCCC(c2ccc(F)cc2)c2ccc(F)cc2)CC1 [Pimozide] + N=C(N)NC(=N)NCCc1ccccc1 [Phenformin] (partner 250 µM)	0.641
Cc1cnc(-c2cnc(NCCNc3ccc(C#N)cn3)nc2-c2ccc(Cl)cc2Cl)[nH]1 + CC1(C)CCC(c2ccc(Cl)cc2)=C(CN2CCN(c3ccc(C(=O)NS(=O)(=O)c4ccc(N[C@H](CCN5CCOCC5)CSc5ccccc5)c(S(=O)(=O)C(F)(F)F)c4)cc3)CC2)C1 [Navitoclax] (partner 0.5 µM)	0.432
Cc1cnc(-c2cnc(NCCNc3ccc(C#N)cn3)nc2-c2ccc(Cl)cc2Cl)[nH]1 + CCNC(=O)c1noc(-c2cc(C(C)C)c(O)cc2O)c1-c1ccc(CN2CCOCC2)cc1 [Luminespib] (partner 0.01 µM)	0.345

We next turn to a different compound, shown below.
Asked: Bench note: what relative viability did O=c1[nH]c2ccccc2n1C1CCN(CCCC(c2ccc(F)cc2)c2ccc(F)cc2)CC1 [Pimozide] + COc1cc2c(Oc3ccc(NC(=O)C4(C(=O)Nc5ccc(F)cc5)CC4)cc3F)ccnc2cc1OCCCN1CCOCC1 [Foretinib] (partner 0.25 µM) show?
Given back: 0.87

----------
Tested on: RERF-LC-KJ
method-notes: relative viability (nuclei count vs DMSO), 5 days (fraction); higher = more cells survive
stated-conditions: first compound 15.81 µM
metric-name: relative viability
Please reply with the value in numeric form only.

compound	study-system	relative viability
O=C(O)CCCCC(CCSCc1ccccc1)SCc1ccccc1 (stereo not drawn) [CPI-613] + C[C@@H](Oc1cc(-c2cnn(C3CCNCC3)c2)cnc1N)c1c(Cl)ccc(F)c1Cl [Crizotinib] (partner 1 µM)	RERF-LC-KJ	0.789

Asked: Bench note: what relative viability did O=C(O)CCCCC(CCSCc1ccccc1)SCc1ccccc1 (stereo not drawn) [CPI-613] + CC1(C)CCC(c2ccc(Cl)cc2)=C(CN2CCN(c3ccc(C(=O)NS(=O)(=O)c4ccc(N[C@H](CCN5CCOCC5)CSc5ccccc5)c(S(=O)(=O)C(F)(F)F)c4)cc3)CC2)C1 [Navitoclax] (partner 0.5 µM) show?
Given back: 0.747

Asked: Bench note: what relative viability did O=C(O)CCCCC(CCSCc1ccccc1)SCc1ccccc1 (stereo not drawn) [CPI-613] + C[C@]1(O)C[C@@H](c2nc(-c3ccc4ccc(-c5ccccc5)nc4c3)c3c(N)nccn32)C1 [Linsitinib] (partner 1 µM) show?
Given back: 0.869

----------
relative viability values for the compounds below.
Test system: SW 900
method-notes: relative viability (nuclei count vs DMSO), 5 days (fraction); higher = more cells survive
stated-conditions: first compound 5 µM

Worked examples follow.
compound	relative viability
O=C(O)CCCCC(CCSCc1ccccc1)SCc1ccccc1 (stereo not given) [CPI-613] + Cc1cc(Nc2cc(N3CCN(C)CC3)nc(Sc3ccc(NC(=O)C4CC4)cc3)n2)n[nH]1 [Tozasertib] (partner 0.1 µM)	0.511
O=C(O)CCCCC(CCSCc1ccccc1)SCc1ccccc1 (stereo not given) [CPI-613] + O=C(c1cc(Cc2n[nH]c(=O)c3ccccc23)ccc1F)N1CCN(C(=O)C2CC2)CC1 [Olaparib] (partner 8 µM)	0.873
O=C(O)CCCCC(CCSCc1ccccc1)SCc1ccccc1 (stereo not given) [CPI-613] + Nc1ncn([C@H]2C[C@H](O)[C@@H](CO)O2)c(=O)n1 [Decitabine] (partner 2 µM)	0.458
O=C(O)CCCCC(CCSCc1ccccc1)SCc1ccccc1 (stereo not given) [CPI-613] + O=C(CCCCCCC(=O)Nc1ccccc1)NO [Vorinostat] (partner 1 µM)	0.512

Asked: Checklist item: relative viability tested on SW 900, entry O=C(O)CCCCC(CCSCc1ccccc1)SCc1ccccc1 (stereo not given) [CPI-613] + COc1cc2c(Oc3ccc(NC(=O)C4(C(=O)Nc5ccc(F)cc5)CC4)cc3F)ccnc2cc1OCCCN1CCOCC1 [Foretinib] (partner 0.25 µM) , value?
Given back: 0.743

----------
Test system: COR-L 105
method-notes: relative viability (nuclei count vs DMSO), 5 days (fraction); higher = more cells survive
stated-conditions: first compound 0.1581 µM
metric-name: relative viability
Please reply with the value in numeric form only.

compound	test-result
COc1cc2nccc(Oc3ccc(NC(=O)Nc4cc(C)on4)c(Cl)c3)c2cc1OC [Tivozanib] + CCNC(=O)c1noc(-c2cc(C(C)C)c(O)cc2O)c1-c1ccc(CN2CCOCC2)cc1 [Luminespib] (partner 0.01 µM)	0.734
COc1cc2nccc(Oc3ccc(NC(=O)Nc4cc(C)on4)c(Cl)c3)c2cc1OC [Tivozanib] + Cc1cc(Nc2cc(N3CCN(C)CC3)nc(Sc3ccc(NC(=O)C4CC4)cc3)n2)n[nH]1 [Tozasertib] (partner 0.1 µM)	0.374
COc1cc2nccc(Oc3ccc(NC(=O)Nc4cc(C)on4)c(Cl)c3)c2cc1OC [Tivozanib] + CC1(C)CCC(c2ccc(Cl)cc2)=C(CN2CCN(c3ccc(C(=O)NS(=O)(=O)c4ccc(N[C@H](CCN5CCOCC5)CSc5ccccc5)c(S(=O)(=O)C(F)(F)F)c4)cc3)CC2)C1 [Navitoclax] (partner 0.5 µM)	1.17

We next turn to a different compound, shown below.
Asked: Bench note: what relative viability did Nc1ccn([C@@H]2O[C@H](CO)[C@@H](O)[C@@H]2O)c(=O)n1 [Cytarabine] + CS(=O)(=O)N1CCN(Cc2cc3nc(-c4cccc5[nH]ncc45)nc(N4CCOCC4)c3s2)CC1 [Pictilisib] (partner 1 µM) show?
Given back: 0.311

----------
Tested on: SK-MES-1
method-notes: relative viability (nuclei count vs DMSO), 5 days (fraction); higher = more cells survive
stated-conditions: first compound 0.253 µM
With a cut-off of 0.9, any relative viability strictly below it is called TRUE; any relative viability meeting it or above is called FALSE.

Observe how each entry below is paired with its result.
compound	discrete-label
Cc1cnc(-c2cnc(NCCNc3ccc(C#N)cn3)nc2-c2ccc(Cl)cc2Cl)[nH]1 + CS(=O)(=O)CCNCc1ccc(-c2ccc3ncnc(Nc4ccc(OCc5cccc(F)c5)c(Cl)c4)c3c2)o1 [Lapatinib] (partner 2 µM)	TRUE
Cc1cnc(-c2cnc(NCCNc3ccc(C#N)cn3)nc2-c2ccc(Cl)cc2Cl)[nH]1 + C[C@@H](Oc1cc(-c2cnn(C3CCNCC3)c2)cnc1N)c1c(Cl)ccc(F)c1Cl [Crizotinib] (partner 1 µM)	FALSE

Asked: Given Cc1cnc(-c2cnc(NCCNc3ccc(C#N)cn3)nc2-c2ccc(Cl)cc2Cl)[nH]1 + N=C(N)NC(=N)NCCc1ccccc1 [Phenformin] (partner 250 µM) , is recorded relative viability strictly lower than 0.9?
Given back: TRUE

Asked: Given O=c1[nH]c2ccccc2n1C1CCN(CCCC(c2ccc(F)cc2)c2ccc(F)cc2)CC1 [Pimozide] + C[C@]1(O)C[C@@H](c2nc(-c3ccc4ccc(-c5ccccc5)nc4c3)c3c(N)nccn32)C1 [Linsitinib] (partner 1 µM) , is recorded relative viability strictly lower than 0.9?
Given back: FALSE
